B1: library; numbered along this chain (parent)
chain: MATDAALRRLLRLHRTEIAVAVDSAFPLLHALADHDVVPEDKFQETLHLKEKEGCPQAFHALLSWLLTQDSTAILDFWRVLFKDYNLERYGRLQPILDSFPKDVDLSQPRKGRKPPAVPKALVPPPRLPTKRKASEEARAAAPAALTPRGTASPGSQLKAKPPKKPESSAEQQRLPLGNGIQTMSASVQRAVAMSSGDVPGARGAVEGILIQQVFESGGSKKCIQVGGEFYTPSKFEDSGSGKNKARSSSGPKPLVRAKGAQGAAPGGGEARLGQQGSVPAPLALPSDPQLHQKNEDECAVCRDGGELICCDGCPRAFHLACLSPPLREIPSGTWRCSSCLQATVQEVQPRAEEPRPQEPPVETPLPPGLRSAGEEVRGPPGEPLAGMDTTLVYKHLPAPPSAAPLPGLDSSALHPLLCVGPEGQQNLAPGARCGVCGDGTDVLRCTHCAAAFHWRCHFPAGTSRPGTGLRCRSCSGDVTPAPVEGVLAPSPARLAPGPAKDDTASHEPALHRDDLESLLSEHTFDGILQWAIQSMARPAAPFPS

Variants of: B1
TEST_METHOD_NOTES: AIRE transcriptional activation functional score (insulin promoter-GFP; nonsense median 0, synonymous median 1) (normalised score); higher = higher AIRE activity (more reporter activation)
RUN_CONDITIONS: with insulin promoter-GFP reporter in HEK293
Tick TRUE if AIRE transcriptional activation functional score is 1 or greater. Tick FALSE if AIRE transcriptional activation functional score is less than 1.

Please review the entries below; each comes with its answer.
E207N FALSE
V279H TRUE

Task item: Reported AIRE transcriptional activation functional score at or above 1? N427R
Reply: FALSE

Task item: What do you have for S287L ?
Reply: TRUE

Task item: What do you have for L418H ?
Reply: FALSE
